# Subject of test: human V1a receptor (Homo sapiens, UniProt P37288)
# Construct: expressed in transfected cells; host or cells: CHO K1 (ATCC), also stably transfected with a modified aequorin
# Sequence (P37288 whole entry): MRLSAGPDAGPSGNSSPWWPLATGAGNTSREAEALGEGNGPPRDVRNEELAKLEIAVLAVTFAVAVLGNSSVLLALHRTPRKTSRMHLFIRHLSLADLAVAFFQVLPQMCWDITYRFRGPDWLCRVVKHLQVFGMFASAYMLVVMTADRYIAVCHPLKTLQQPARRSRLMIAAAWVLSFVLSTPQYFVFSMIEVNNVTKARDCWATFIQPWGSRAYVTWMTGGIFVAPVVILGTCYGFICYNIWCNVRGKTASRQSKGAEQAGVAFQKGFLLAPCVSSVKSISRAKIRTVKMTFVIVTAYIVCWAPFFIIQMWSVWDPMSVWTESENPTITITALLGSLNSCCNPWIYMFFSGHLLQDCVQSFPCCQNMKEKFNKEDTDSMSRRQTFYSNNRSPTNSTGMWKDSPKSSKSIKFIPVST
# Procedure details: Cellular in vitro assay for determining vasopressin receptor activity, V1a receptor cell line (CHO, aequorin luminescence)
# Type: cell-based
# Test parameters: selectivity ratio IC50 hV2 / IC50 hV1a
// values below are reported ratio IC50 hV2/hV1a

{"Molecule": "O=C(Nc1cccnc1-n1cnc(Cn2nc(-c3ccc(Cl)cc3)n(C[C@H](O)C(F)(F)F)c2=O)n1)C1CCS(=O)(=O)C1 (single isomer, unassigned) [Example 52]", "Subject of test": "human V1a receptor (Homo sapiens, UniProt P37288)", "ratio IC50 hV2/hV1a": 173.9}
{"Molecule": "O=C(c1cccc(Cl)c1-n1cnc(Cn2nc(-c3ccc(Cl)cc3)n(C[C@H](O)C(F)(F)F)c2=O)n1)N1CCC[C@@H]1C(F)(F)F", "Subject of test": "human V1a receptor (Homo sapiens, UniProt P37288)", "ratio IC50 hV2/hV1a": 17.9}
{"Molecule": "CN(C)C(=O)c1ccccc1-n1cnc(Cn2nc(-c3ccc(Cl)cc3)n(C[C@H](O)C(F)(F)F)c2=O)n1", "Subject of test": "human V1a receptor (Homo sapiens, UniProt P37288)", "ratio IC50 hV2/hV1a": 512.2}
{"Molecule": "O=C(c1ncccc1-n1cnc(Cn2nc(-c3ccc(Cl)cc3)n(C[C@H](O)C(F)(F)F)c2=O)n1)N1CCOC(C(F)(F)F)C1 (mixture of isomers)", "Subject of test": "human V1a receptor (Homo sapiens, UniProt P37288)", "ratio IC50 hV2/hV1a": 65.4}
{"Molecule": "NC(=O)C1CCCN1C(=O)c1ncccc1-n1cnc(Cn2nc(-c3ccc(Cl)cc3)n(C[C@H](O)C(F)(F)F)c2=O)n1 (mixture of isomers)", "Subject of test": "human V1a receptor (Homo sapiens, UniProt P37288)", "ratio IC50 hV2/hV1a": 34.6}
{"Molecule": "NC(=O)[C@@H]1CCCN1c1ncccc1-n1cnc(Cn2nc(-c3ccc(Cl)cc3)n(C[C@H](O)C(F)(F)F)c2=O)n1", "Subject of test": "human V1a receptor (Homo sapiens, UniProt P37288)", "ratio IC50 hV2/hV1a": 6.9}
{"Molecule": "O=C(NC1CC1(F)F)c1cccnc1-n1cnc(Cn2nc(-c3ccc(Cl)cc3)n(C[C@H](O)C(F)(F)F)c2=O)n1 (stereo partly drawn)", "Subject of test": "human V1a receptor (Homo sapiens, UniProt P37288)", "ratio IC50 hV2/hV1a": 44.9}
{"Molecule": "O=C1CC[C@H](CNC(=O)c2ccccc2-n2cnc(Cn3nc(-c4ccc(Cl)cc4)n(C[C@H](O)C(F)(F)F)c3=O)n2)N1", "Subject of test": "human V1a receptor (Homo sapiens, UniProt P37288)", "ratio IC50 hV2/hV1a": 278.7}
{"Molecule": "Cc1cccc(NC(=O)c2ccccc2-n2cnc(Cn3nc(-c4ccc(Cl)cc4)n(C[C@H](O)C(F)(F)F)c3=O)n2)c1", "Subject of test": "human V1a receptor (Homo sapiens, UniProt P37288)", "ratio IC50 hV2/hV1a": 38.2}
{"Molecule": "O=C1CCC(NC(=O)c2ccccc2-n2cnc(Cn3nc(-c4ccc(Cl)cc4)n(CC(O)C(F)(F)F)c3=O)n2)CN1 (single isomer, unassigned) [Example 193]", "Subject of test": "human V1a receptor (Homo sapiens, UniProt P37288)", "ratio IC50 hV2/hV1a": 38.8}
{"Molecule": "O=C(CC1CCCCC1)Nc1ncccc1-n1cnc(Cn2nc(-c3ccc(Cl)cc3)n(C[C@H](O)C(F)(F)F)c2=O)n1", "Subject of test": "human V1a receptor (Homo sapiens, UniProt P37288)", "ratio IC50 hV2/hV1a": 8.5}
{"Molecule": "NC(=O)[C@@H]1CCCN1c1ccncc1-n1cnc(Cn2nc(-c3ccc(Cl)cc3)n(C[C@H](O)C(F)(F)F)c2=O)n1", "Subject of test": "human V1a receptor (Homo sapiens, UniProt P37288)", "ratio IC50 hV2/hV1a": 6.0}
{"Molecule": "O=C(c1cccc(C(F)(F)F)c1-n1cnc(Cn2nc(-c3ccc(Cl)cc3)n(C[C@H](O)C(F)(F)F)c2=O)n1)N1CCS(=O)(=O)CC1", "Subject of test": "human V1a receptor (Homo sapiens, UniProt P37288)", "ratio IC50 hV2/hV1a": 50.4}
{"Molecule": "O=C(c1ccccc1-n1cnc(Cn2nc(-c3ccc(Cl)cc3)n(C[C@H](O)C(F)(F)F)c2=O)n1)N1CCCCO1", "Subject of test": "human V1a receptor (Homo sapiens, UniProt P37288)", "ratio IC50 hV2/hV1a": 253.1}
{"Molecule": "O=C(NCC1CC1)c1cccnc1-n1cnc(Cn2nc(-c3ccc(Cl)cc3)n(C[C@H](O)C(F)(F)F)c2=O)n1", "Subject of test": "human V1a receptor (Homo sapiens, UniProt P37288)", "ratio IC50 hV2/hV1a": 33.7}
{"Molecule": "O=C(NCC1CC1)c1cccc(C(F)(F)F)c1-n1cnc(Cn2nc(-c3ccc(Cl)cc3)n(C[C@H](O)C(F)(F)F)c2=O)n1", "Subject of test": "human V1a receptor (Homo sapiens, UniProt P37288)", "ratio IC50 hV2/hV1a": 10.7}
{"Molecule": "CNC(=O)c1cc(F)ccc1-n1cnc(Cn2nc(-c3ccc(Cl)cc3)n(C[C@H](O)C(F)(F)F)c2=O)n1", "Subject of test": "human V1a receptor (Homo sapiens, UniProt P37288)", "ratio IC50 hV2/hV1a": 10.2}
{"Molecule": "Cc1nonc1C(=O)Nc1ncccc1-n1cnc(Cn2nc(-c3ccc(Cl)cc3)n(C[C@H](O)C(F)(F)F)c2=O)n1", "Subject of test": "human V1a receptor (Homo sapiens, UniProt P37288)", "ratio IC50 hV2/hV1a": 295.9}
{"Molecule": "O=c1n(Cc2ncn(-c3cnccc3N3CCC(F)(F)CC3)n2)nc(-c2ccc(Cl)cc2)n1C[C@H](O)C(F)(F)F", "Subject of test": "human V1a receptor (Homo sapiens, UniProt P37288)", "ratio IC50 hV2/hV1a": 43.8}
{"Molecule": "O=C(Nc1cccnc1-n1cnc(Cn2nc(-c3ccc(Cl)cc3)n(C[C@H](O)C(F)(F)F)c2=O)n1)C1CCS(=O)(=O)C1 (mixture of isomers) [Example 50]", "Subject of test": "human V1a receptor (Homo sapiens, UniProt P37288)", "ratio IC50 hV2/hV1a": 213.0}
{"Molecule": "O=C(NC1CC(F)(F)C1)c1cccc(Cl)c1-n1cnc(Cn2nc(-c3ccc(Cl)cc3)n(C[C@H](O)C(F)(F)F)c2=O)n1", "Subject of test": "human V1a receptor (Homo sapiens, UniProt P37288)", "ratio IC50 hV2/hV1a": 7.8}
{"Molecule": "O=c1n(Cc2ncn(-c3cnccc3NCC3(O)CC3)n2)nc(-c2ccc(Cl)cc2)n1C[C@H](O)C(F)(F)F", "Subject of test": "human V1a receptor (Homo sapiens, UniProt P37288)", "ratio IC50 hV2/hV1a": 1.1}
{"Molecule": "O=C(c1ncccc1-n1cnc(Cn2nc(-c3ccc(Cl)cc3)n(C[C@@H](O)C(F)(F)F)c2=O)n1)N1CCC(O)(C(F)(F)F)C1 (stereo partly drawn)", "Subject of test": "human V1a receptor (Homo sapiens, UniProt P37288)", "ratio IC50 hV2/hV1a": 76.2}
{"Molecule": "COCC1CCCN1C(=O)c1ccncc1-n1nc(Cn2nc(-c3ccc(Cl)cc3)n(C[C@H](O)C(F)(F)F)c2=O)nc1C(=O)N1CCNC(=O)C1 (mixture of isomers)", "Subject of test": "human V1a receptor (Homo sapiens, UniProt P37288)", "ratio IC50 hV2/hV1a": 9.6}

====

Recorded pIC50 by entry
# Subject of test: human V1a receptor (Homo sapiens)
# Procedure details: Cellular in vitro assay for determining vasopressin receptor activity, V1a receptor cell line (CHO, aequorin luminescence)
# Test parameters: CHO cell line transfected with human V1a receptor; [Arg]-vasopressin at EC50 concentration; read-out: IC50 hV1a
# Description: B-1. Cellular In Vitro Assay for Determining Vasopressin Receptor Activity The identification of agonists and antagonists of the V1a and V2 vasopressin receptors from humans, rats and dogs as well as the quantification of the activity of the compounds of the invention is carried out using recombinant cell lines. […] The bioluminescence of the cell lines is detected using a suitable luminometer [Milligan G, Marshall F, Rees S, Trends in Pharmacological Sciences 17, 235-237 (1996)]. […]
pIC50: −log10 of the molar value.

{"Compound": "O=C(CC1CC1)Nc1cccnc1-n1cnc(Cn2nc(-c3ccc(Cl)cc3)n(C[C@H](O)C(F)(F)F)c2=O)n1 [Example 46]", "pIC50": 7.49}
{"Compound": "CC1(C)COCCN1C(=O)c1ccccc1-n1cnc(Cn2nc(-c3ccc(Cl)cc3)n(C[C@H](O)C(F)(F)F)c2=O)n1 [Example 281]", "pIC50": 8.95}
{"Compound": "CC1SCCN1C(=O)c1ccccc1-n1cnc(Cn2nc(-c3ccc(Cl)cc3)n(C[C@H](O)C(F)(F)F)c2=O)n1 (mixture of isomers) [Example 270]", "pIC50": 8.68}
{"Compound": "O=C(c1ccccc1-n1cnc(Cn2nc(-c3ccc(Cl)cc3)n(C[C@H](O)C(F)(F)F)c2=O)n1)N1CC[C@@H](O)C1 [Example 291]", "pIC50": 8.18}
{"Compound": "CCc1cc(C(=O)Nc2ncccc2-n2cnc(Cn3nc(-c4ccc(Cl)cc4)n(C[C@H](O)C(F)(F)F)c3=O)n2)no1 [Example 139]", "pIC50": 7.69}
{"Compound": "CC1(C(=O)Nc2ncccc2-n2cnc(Cn3nc(-c4ccc(Cl)cc4)n(C[C@H](O)C(F)(F)F)c3=O)n2)CC1 [Example 154]", "pIC50": 8.17}
